Give BUN for every item shown.
# System: db/db mice
# Measurement Protocol: Plasma biochemical parameters (AST, ALT, BUN, Cr, HbA1c)
# Assay type: in vivo
# Experimental Context: Ex 3: db/db mice, daily dosing 3 weeks at doses of Table 10; week 9
Marks after values point to notes of the source that are not given here.

C[C@@H](O)[C@H]1C(=O)N2C(C(=O)O)=C(S[C@@H]3CN[C@H](C(=O)Nc4cccc(C(=O)O)c4)C3)[C@H](C)[C@H]12 : 44 + 2^d mg/dL
C[C@@H](O)[C@H]1C(=O)N2C(C(=O)O)=C(S[C@@H]3CN[C@H](C(=O)N(C)C)C3)[C@H](C)[C@H]12 [MER, meropenem hydrate] : 43 ± 2^bd mg/dL
CO/N=C(\C(=O)N[C@@H]1C(=O)N2C(C(=O)O)=C(CSc3nc(=O)c(=O)[nH]n3C)CS[C@H]12)c1csc(N)n1 : 38 ± 2^bc mg/dL

# value of BUN, db/db mice, item CN(C)C(=N)N=C(N)N = 37 ± 1^b mg/dL

---

# Test system: db/db mice
# Measurement Protocol: Plasma biochemical parameters (AST, ALT, BUN, Cr, HbA1c)
# Type: in vivo
# Experimental Context: Ex 3: db/db mice, daily dosing 3 weeks at doses of Table 10; week 9
Marks after values point to notes of the source that are not given here.
Give ALT for every item shown.

Worked examples follow.
C[C@@H](O)[C@H]1C(=O)N2C(C(=O)O)=C(S[C@@H]3CN[C@H](C(=O)Nc4cccc(C(=O)O)c4)C3)[C@H](C)[C@H]12 : 79 ± 8^bc U/L
CN(C)C(=N)N=C(N)N : 116 ± 12^d U/L
CO/N=C(\C(=O)N[C@@H]1C(=O)N2C(C(=O)O)=C(CSc3nc(=O)c(=O)[nH]n3C)CS[C@H]12)c1csc(N)n1 : 80 ± 7^bc U/L

Now consider the entry below.
# value of ALT, db/db mice, item C[C@@H](O)[C@H]1C(=O)N2C(C(=O)O)=C(S[C@@H]3CN[C@H](C(=O)N(C)C)C3)[C@H](C)[C@H]12 [MER, meropenem hydrate] = 89 ± 5^bcd U/L

---

Give AST for every item shown.
# Tested on: db/db mice
# Measurement Protocol: Plasma biochemical parameters (AST, ALT, BUN, Cr, HbA1c)
# Type: in vivo
# Experimental Context: Ex 3: db/db mice, daily dosing 3 weeks at doses of Table 10; week 9
Marks after values point to notes of the source that are not given here.

Worked examples follow.
CN(C)C(=N)N=C(N)N [Met, metformin] : 194 ± 17^e U/L
C[C@@H](O)[C@H]1C(=O)N2C(C(=O)O)=C(S[C@@H]3CN[C@H](C(=O)Nc4cccc(C(=O)O)c4)C3)[C@H](C)[C@H]12 [DMH, ertapenem] : 127 ± 13^ad U/L

Please give AST for each item listed below.
1. C[C@@H](O)[C@H]1C(=O)N2C(C(=O)O)=C(S[C@@H]3CN[C@H](C(=O)N(C)C)C3)[C@H](C)[C@H]12 [MER, meropenem hydrate]
2. CO/N=C(\C(=O)N[C@@H]1C(=O)N2C(C(=O)O)=C(CSc3nc(=O)c(=O)[nH]n3C)CS[C@H]12)c1csc(N)n1 [CEFT, ceftriaxone]

### Response
1: 93 ± 8^ab U/L; 2: 104 ± 10^ac U/L

---

# Test system: db/db mice
# Measurement Protocol: Oral glucose tolerance test (OGTT)
# Assay type: in vivo
# Design: unit not given here
# Experimental Context: Ex 3: db/db mice, daily dosing 3 weeks at doses of Table 10; Week 9 (stopped for 6 weeks)
Marks after values point to notes of the source that are not given here.
Give OGTT AUC for every item shown.

Worked examples follow.
CC1(C)S[C@@H]2[C@H](NC(=O)Cc3ccccc3)C(=O)N2[C@H]1C(=O)O : 1181 ± 69^b
C[C@@H](O)[C@H]1C(=O)N2C(C(=O)O)=C(S[C@@H]3CN[C@H](C(=O)N(C)C)C3)[C@H](C)[C@H]12 [MER, meropenem hydrate] : 1648 ± 61^def
CO/N=C(\C(=O)N[C@@H]1C(=O)N2C(C(=O)O)=C(CSc3nc(=O)c(=O)[nH]n3C)CS[C@H]12)c1csc(N)n1 : 1483 ± 37^ce
C[C@@H](O)[C@H]1C(=O)N2C(C(=O)O)=C(S[C@@H]3CN[C@H](C(=O)Nc4cccc(C(=O)O)c4)C3)[C@H](C)[C@H]12 : 1356 ± 149^bc

Record CN(C)C(=N)N=C(N)N , field OGTT AUC: 1707 ± 43^f

---

Give Creatinine for every item shown.
# Test system: db/db mice
# Measurement Protocol: Plasma biochemical parameters (AST, ALT, BUN, Cr, HbA1c)
# Format: in vivo
# Experimental Context: Ex 3: db/db mice, daily dosing 3 weeks at doses of Table 10; week 9
Marks after values point to notes of the source that are not given here.

Worked examples follow.
C[C@@H](O)[C@H]1C(=O)N2C(C(=O)O)=C(S[C@@H]3CN[C@H](C(=O)N(C)C)C3)[C@H](C)[C@H]12 [MER, meropenem hydrate] : 0.488 ± 0.03^cde mg/dL
CO/N=C(\C(=O)N[C@@H]1C(=O)N2C(C(=O)O)=C(CSc3nc(=O)c(=O)[nH]n3C)CS[C@H]12)c1csc(N)n1 : 0.428 ± 0.01^b mg/dL
CN(C)C(=N)N=C(N)N : 0.517 ± 0.01^e mg/dL

Now consider the entry below.
Record C[C@@H](O)[C@H]1C(=O)N2C(C(=O)O)=C(S[C@@H]3CN[C@H](C(=O)Nc4cccc(C(=O)O)c4)C3)[C@H](C)[C@H]12 , field Creatinine: 0.467 ± 0.01^bd mg/dL

---

Give HbA1c for every item shown.
# Test system: db/db mice
# Measurement Protocol: Plasma biochemical parameters (AST, ALT, BUN, Cr, HbA1c)
# Type: in vivo
# Experimental Context: Ex 3: db/db mice, daily dosing 3 weeks at doses of Table 10; week 9
Marks after values point to notes of the source that are not given here.

Worked examples follow.
CO/N=C(\C(=O)N[C@@H]1C(=O)N2C(C(=O)O)=C(CSc3nc(=O)c(=O)[nH]n3C)CS[C@H]12)c1csc(N)n1 [CEFT, ceftriaxone] : 4.9 ± 0.2^c %
CN(C)C(=N)N=C(N)N [Met, metformin] : 6.7 ± 0.2^e %
C[C@@H](O)[C@H]1C(=O)N2C(C(=O)O)=C(S[C@@H]3CN[C@H](C(=O)Nc4cccc(C(=O)O)c4)C3)[C@H](C)[C@H]12 [DMH, ertapenem] : 5.8 ± 0.3^d %
CC1(C)S[C@@H]2[C@H](NC(=O)Cc3ccccc3)C(=O)N2[C@H]1C(=O)O [PEN, penicillin G] : 4.2 ± 0.2^a %

Now consider the entry below.
# value of HbA1c, db/db mice, item C[C@@H](O)[C@H]1C(=O)N2C(C(=O)O)=C(S[C@@H]3CN[C@H](C(=O)N(C)C)C3)[C@H](C)[C@H]12 [MER, meropenem hydrate] = 6.9 ± 0.3^e %
